# ASSAYED TARGET: D2 receptor (Homo sapiens (Human), UniProt P14416)
# Sequence (P14416 whole entry, looked up): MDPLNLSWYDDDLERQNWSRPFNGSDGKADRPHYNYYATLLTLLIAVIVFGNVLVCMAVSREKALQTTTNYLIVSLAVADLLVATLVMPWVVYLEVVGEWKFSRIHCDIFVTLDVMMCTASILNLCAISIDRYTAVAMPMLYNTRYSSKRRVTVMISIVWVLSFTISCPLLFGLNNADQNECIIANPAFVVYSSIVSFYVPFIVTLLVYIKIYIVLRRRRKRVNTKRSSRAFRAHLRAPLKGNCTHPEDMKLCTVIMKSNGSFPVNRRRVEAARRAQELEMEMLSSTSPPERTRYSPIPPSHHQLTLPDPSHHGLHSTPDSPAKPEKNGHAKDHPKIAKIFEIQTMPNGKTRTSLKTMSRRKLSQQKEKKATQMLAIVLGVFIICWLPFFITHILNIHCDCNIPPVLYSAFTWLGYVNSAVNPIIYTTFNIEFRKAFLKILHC
# PROCEDURE SUMMARY: FLIPR Ca^2+ flux agonist assay at D2
# Format: cell-based
// label = Y if D2 % Act @ Max Dose is not less than 90%, otherwise N

QUERY: Hello, I need to know if CCN(CC)C(=O)[C@@H]1C=C2c3cccc4[nH]cc(c34)C[C@H]2N(Cc2ccccc2OC)C1 has measured D2 % Act @ Max Dose not below 90%. Thanks!
RESULT: N

QUERY: Hello, I need to know if CCCN1C[C@H](C(=O)N[C@H](C)CC)C=C2c3cccc4[nH]cc(c34)C[C@H]21 has measured D2 % Act @ Max Dose not below 90%. Thanks!
RESULT: Y

QUERY: Hello, I need to know if CCCN1C[C@H](C(=O)N2[C@@H](C)C[C@@H]2C)C=C2c3cccc4[nH]cc(c34)C[C@H]21 has measured D2 % Act @ Max Dose not below 90%. Thanks!
RESULT: Y

QUERY: Hello, I need to know if CCCN1C[C@H](C(=O)N(CC)CC)C=C2c3cccc4[nH]cc(c34)C[C@H]21 has measured D2 % Act @ Max Dose not below 90%. Thanks!
RESULT: Y

QUERY: Hello, I need to know if CCN(CC)C(=O)[C@@H]1C=C2c3cccc4[nH]cc(c34)C[C@H]2N(CCc2ccccc2OC)C1 has measured D2 % Act @ Max Dose not below 90%. Thanks!
RESULT: Y

QUERY: Hello, I need to know if CCN(CC)C(=O)[C@@H]1C=C2c3cccc4[nH]cc(c34)C[C@H]2N(C)C1 [LSD, lysergic acid diethylamide, reference compound] has measured D2 % Act @ Max Dose not below 90%. Thanks!
RESULT: N

----------
# PROCEDURE SUMMARY: Metabolic stability in rat liver microsomes (RLM)
# Assay type: in vitro ADME
# PARTICULARS: both sexes, rat, pooled rat liver microsomes, pH 7.4, NADPH
OBSERVED PROPERTY: half-life at 1 μM (min)
Please state the figure in min; there is no need to write the unit.

QUERY: Look up and state reported half-life at 1 μM for CCN(CC)C(=O)[C@@H]1C=C2c3cccc4[nH]cc(c34)C[C@H]2N(CCc2cccc(OC)c2)C1
RESULT: 1.2

QUERY: Look up and state reported half-life at 1 μM for C[C@H]1C[C@H](C)N1C(=O)[C@@H]1C=C2c3cccc4[nH]cc(c34)C[C@H]2N(C)C1
RESULT: 54.9

QUERY: Look up and state reported half-life at 1 μM for CCN(CC)C(=O)[C@@H]1C=C2c3cccc4[nH]cc(c34)C[C@H]2N(Cc2ccccc2OC)C1
RESULT: 3.4

QUERY: Look up and state reported half-life at 1 μM for CCN(CC)C(=O)[C@@H]1C=C2c3cccc4[nH]cc(c34)C[C@H]2N(Cc2ccccn2)C1
RESULT: 13.2

----------
# Test system: C57BL/6 mice
# PROCEDURE SUMMARY: Mouse head twitch response (HTR) assay
# Format: in vivo
# PARTICULARS: mouse HTR, SC, 20 min observation
# Experimental: Agonists of the 5-HT2A receptor are well known to induce this effect in rodents and the potency of this HTR is correlated with hallucinogenic potency in humans. Animals. Adult male C57BL/6 mice, aged 6-8 weeks (body weight 20-25 g) were used in this experiment. […] Drugs and Drug Administration. […] Doses were calculated on the basis of the freebase. Procedure. […] Animals were observed continuously for 20 mins and the number of head twitches (HTs) were counted by an observer blind to the treatment condition. […]
OBSERVED PROPERTY: # HTR at Most Efficacious Dose
Note: the reply should be a number with no unit written.

QUERY: Look up and state reported # HTR at Most Efficacious Dose for CCN(CC)C(=O)[C@@H]1C=C2c3cccc4[nH]cc(c34)C[C@H]2N(CCCF)C1
RESULT: 21.833

QUERY: Look up and state reported # HTR at Most Efficacious Dose for CCN(CC)C(=O)[C@@H]1C=C2c3cccc4[nH]cc(c34)C[C@H]2N(CCc2ccccc2OC)C1
RESULT: 12.0

QUERY: Look up and state reported # HTR at Most Efficacious Dose for CCCN1C[C@H](C(=O)NC(CC)CC)C=C2c3cccc4[nH]cc(c34)C[C@H]21
RESULT: 20.5

QUERY: Look up and state reported # HTR at Most Efficacious Dose for CCC(CC)NC(=O)[C@@H]1C=C2c3cccc4[nH]cc(c34)C[C@H]2N(C)C1
RESULT: 10.5

QUERY: Look up and state reported # HTR at Most Efficacious Dose for CCCN1C[C@H](C(=O)N2[C@@H](C)C[C@@H]2C)C=C2c3cccc4[nH]cc(c34)C[C@H]21
RESULT: 4.667

QUERY: Look up and state reported # HTR at Most Efficacious Dose for C[C@H]1C[C@H](C)N1C(=O)[C@@H]1C=C2c3cccc4[nH]cc(c34)C[C@H]2N(C)C1
RESULT: 10.667

QUERY: Look up and state reported # HTR at Most Efficacious Dose for CCC[C@@H](C)NC(=O)[C@@H]1C=C2c3cccc4[nH]cc(c34)C[C@H]2N(CCC)C1
RESULT: 16.667

QUERY: Look up and state reported # HTR at Most Efficacious Dose for C=CCN1C[C@H](C(=O)N[C@H](C)CC)C=C2c3cccc4[nH]cc(c34)C[C@H]21
RESULT: 15.75
